- methodSummary: Squalene degradation test with free-radical initiator V65 (protective factor QS, synergy with tocopherol)
- Design: key: QS = degradation rate without stabilizer / degradation rate with it
- experimentalParameters: 250 ppm test substance in 2% azobis(2,4-dimethylvaleronitrile) in squalene; stored open 30 days at 40° C.; squalene content by GC; QSx=degradation rate0/degradation ratex
Give measured QS for each item. Keep answers brief.
No unit in the answer, only the number.

Record summary for O=C(O)c1cccnc1S : reported QS = 1.18

Lab book: QS of CCCc1cc(O)nc(S)n1 noted as 2.58

The reported value for S=c1cc[nH]c(=S)[nH]1 in terms of QS is 1.13

Lab book: QS of Oc1cccnc1S noted as 1.66

Record Sc1nccs1 . Reported QS: 2.75

Looking up S=C1CSc2ccccc2N1 , I see its QS listed as 3.03

The recorded QS for On1ccccc1=S is 1.47

Kindly note the recorded QS for Sc1nnc(-c2ccccc2)[nH]1 , which is 1.34
